Reported Max MFI values follow for various binders
- SUBJECT OF TEST: T1, human CCR8 (human, UniProt P51685 1-355)
- T1 construct: whole, on cells; also called hCCR8
- METHOD DESCRIPTION: FACS on HuT78 cells (endogenous human CCR8)
Write the number in MFI without appending the unit.

Example entries and their recorded answers appear below.
BINDER: Hu149-13 (antibody, human IgG1, V domains shown, human IgG1) VH: EVQLVESGGGLVQPGGSLKLSCAASGFTFNTYAMNWVRQASGKGLEWVGRIRSKSNFYATAYAASVKGRFTISRDDSKNTAYLQMNSLKTEDTAVYYCTRGREYGRSYAMDYWGQGTLVTVSS VL: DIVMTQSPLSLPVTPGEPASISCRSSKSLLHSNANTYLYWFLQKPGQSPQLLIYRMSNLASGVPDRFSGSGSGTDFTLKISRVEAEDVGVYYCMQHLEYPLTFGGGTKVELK
UNIT INFO: MFI
Max MFI: 39100

BINDER: Hu149-18 (antibody, human IgG1, V domains shown, human IgG1) VH: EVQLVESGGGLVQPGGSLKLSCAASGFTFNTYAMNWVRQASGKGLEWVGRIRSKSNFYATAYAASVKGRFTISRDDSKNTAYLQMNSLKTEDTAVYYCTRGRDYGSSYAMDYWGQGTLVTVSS VL: DIVMTQSPLSLPVTPGEPASISCRSSKSLLHSNANTYLYWFLQKPGQSPQLLIYRMSNLASGVPDRFSGSGSGTDFTLKISRVEAEDVGVYYCMQHLRYPLTFGGGTKVELK
UNIT INFO: MFI
Max MFI: 351000

*Q* Reported Max MFI, binder Hu149-9 (antibody, human IgG1, V domains shown, humanized, human IgG1; also called Hu149-9 HuIgG1) VH: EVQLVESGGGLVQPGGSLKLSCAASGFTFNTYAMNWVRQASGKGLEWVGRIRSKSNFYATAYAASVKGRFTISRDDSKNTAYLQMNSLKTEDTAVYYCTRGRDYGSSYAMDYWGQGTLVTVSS VL: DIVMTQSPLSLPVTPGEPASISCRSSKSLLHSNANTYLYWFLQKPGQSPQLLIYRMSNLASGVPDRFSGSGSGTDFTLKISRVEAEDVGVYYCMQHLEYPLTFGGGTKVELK : ____
*A* 32300

*Q* Reported Max MFI, binder Hu149-23 (antibody, human IgG1, V domains shown, human IgG1) VH: EVQLVESGGGLVQPGGSLKLSCAASGFTFNTYAMNWVRQAPGKGLEWVGRIRSKSNFYATAYAASVKGRFTISRDDSKNTAYLQMNSLKTEDTAVYYCTRGREYGSSYAMDYWGQGTLVTVSS VL: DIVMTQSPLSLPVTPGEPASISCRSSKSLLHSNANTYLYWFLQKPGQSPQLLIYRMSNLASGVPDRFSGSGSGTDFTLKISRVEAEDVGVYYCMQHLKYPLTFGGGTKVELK : ____
*A* 161000

*Q* Reported Max MFI, binder Hu149-15 (antibody, human IgG1, V domains shown, human IgG1) VH: EVQLVESGGGLVQPGGSLKLSCAASGFTFNTYAMNWVRQAPGKGLEWVGRIRSKSNFYATAYAASVKGRFTISRDDSKNTAYLQMNSLKTEDTAVYYCTRGRDYGSSYAMDYWGQGTLVTVSS VL: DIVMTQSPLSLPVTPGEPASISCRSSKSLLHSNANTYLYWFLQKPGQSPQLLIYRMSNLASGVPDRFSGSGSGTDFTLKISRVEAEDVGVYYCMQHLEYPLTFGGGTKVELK : ____
*A* 21300
